# Test system: freshly isolated rat hepatocytes
# method notes: Uptake into freshly isolated rat hepatocytes
# Assay type: cell-based
# experimental parameters: 100 μmol Gd/L, 10 min, 37 °C, relative to RC1 (Gd-EOB-DTPA)
Listed compounds paired with reported Uptake rat hepatocytes
reported property: Uptake rat hepatocytes

# compound, reported
data = [
    ("CCOc1ccc(CC2CN(CC(=O)[O-])CCN(CC(=O)[O-])CCN(CC(=O)O)CCN2CC(=O)[O-])cc1.[Gd+3] (centres unmarked) [Example 7]", "73 % of RC1"),
    ("CCOc1ccc(CC2CN(CC(=O)[O-])CCN(CC(=O)[O-])CCN(CC(=O)O)CCN2CC(=O)[O-])cc1.[Gd+3] (single isomer, unassigned; diastereomer 2) [Example 9]", "42 % of RC1"),
    ("CCOc1ccc(C[C@H]2CN(CC(=O)[O-])CCN(CC(=O)[O-])CCN(CC(=O)O)CCN2CC(=O)[O-])cc1.[Gd+3] (single isomer, unassigned; stereoisomer 1) [Example 10]", "104 % of RC1"),
    ("CCOc1ccc(C[C@H]2CN(CC(=O)[O-])CCN(CC(=O)[O-])CCN(CC(=O)O)CCN2CC(=O)[O-])cc1.[Gd+3] (single isomer, unassigned; stereoisomer 2) [Example 11]", "49 % of RC1"),
    ("COCCOCCOCCOc1ccc(C[C@@H]2CN(CC(=O)[O-])CCN(CC(=O)[O-])CCN(CC(=O)O)CCN2CC(=O)[O-])cc1.[Gd+3]", "49 % of RC1"),
]
